Each item that follows carries a reported growth.
System: CAKI-1 renal
Test: NCI-60 one-dose screen, 48 h (100 = growth as untreated, 0 = no growth, -100 = all killed)
Settings: 10 µM unless noted
About 83,000 compounds went through this panel and 20% of them were active in at least one assay; those are over-represented in the sample as a whole.
Provide the reading as a plain figure in %.

- compound: "COc1ccc(C(=O)/C=C/c2ccc(OC)c(OCc3ccccc3)c2)cc1OC"
  unit_name: "%"
  growth: 39.4
- compound: "O=C(N=Nc1c(O)[nH]c2ccc([N+](=O)[O-])cc12)c1ccc2nc(-c3ccccc3)[nH]c2c1"
  unit_name: "%"
  growth: 91.7
- compound: "O=[N+]([O-])c1ccc(/C=C/c2nc3ccccc3n3c(=S)[nH]nc23)cc1"
  unit_name: "%"
  growth: 75.2
- compound: "CCOC(=O)/C=C/c1cccc2c1C(=O)NC(C)(c1cc3cc(Br)ccc3oc1=O)N2 (stereo unspecified)"
  unit_name: "%"
  growth: 20.2
- compound: "O=C(O)c1ccc(-c2ccc(/C=N/NC(=O)c3[nH]c4ccc(Br)cc4c3-c3ccccc3)o2)cc1"
  unit_name: "%"
  growth: 38.5
- compound: "COc1cc(-c2ccc(/C=N/NC(=O)c3[nH]c4ccc(Br)cc4c3-c3ccccc3)s2)cc(OC)c1OC"
  unit_name: "%"
  growth: 71.6
- compound: "Cc1ccc(NC(=O)CN2CCN(c3ncnc4c3cnn4-c3ccccc3)CC2)cc1"
  unit_name: "%"
  growth: 77.8
- compound: "CSc1ccccc1NC(=O)c1ccc2nnn(/C(C#N)=C/c3ccccn3)c2c1"
  unit_name: "%"
  growth: -88.2

### Prompt Need growth of Nc1nc(-c2ccccc2)c(N=Nc2ccc(Cl)cc2[N+](=O)[O-])s1 , thanks.
### Response 82.5

### Prompt Any idea what growth was measured for CC1(c2cc3cc(Br)ccc3oc2=O)NC(=O)c2c(/C=C/C(=O)OC3CC4CCC3(C)C4(C)C)cccc2N1 (stereo unspecified) ?
### Response 78.2

### Prompt Can you look up the measured growth of CC1=C(C(=O)OCc2ccccc2)C(c2ccc(-n3cncn3)cc2)n2c(nc3ccccc32)N1 (stereo unspecified) for me?
### Response 42.8

### Prompt // lookup growth for CC1(C)CC[C@]2(C(=O)O)CC[C@]3(C)C(=CCC4[C@@]5(C)C[C@@H](O)[C@@H]6OC(c7ccc(F)cc7)OC[C@@]6(C)C5CC[C@]43C)C2C1 (stereo partly specified)
### Response 33.6

### Prompt # lookup: growth of COc1ccc(-c2ccnc(SCc3cc4ccccc4[nH]c3=O)n2)cc1
### Response 55.1

### Prompt Given the compound CC(=O)OC[C@@]1(C)C2CC[C@]3(C)C(CC=C4C5CC(C)(C)CC[C@]5(C(=O)Nc5ccc(C)cc5)CC[C@]43C)[C@@]2(C)C[C@@H](OC(C)=O)[C@@H]1OC(C)=O (stereo partly specified) , what is its reported growth?
### Response 45.8

### Prompt Need growth, item COc1ccc(NC(=O)Cn2c3c(sc2=O)[C@H]2[C@@H](O)[C@@H](O)[C@H](O)[C@@H]2CS3)cc1
### Response 97.2

### Prompt Item under review: C#CCOc1cc(N(CC)CC)ccc1C(C(=O)NC(C)(C)C)N(C(=O)C1CCc2cc(F)ccc2O1)c1ccccc1Br (stereo unspecified) . Reported growth?
### Response 44.7

### Prompt Please give the measured growth for this compound: CC(=O)Nc1ccc(-c2cn(-c3cccc(C(=O)Nc4ccc(N5CCN(C)CC5)cc4)c3)nn2)cn1
### Response 98.2

### Prompt Entry under review: O=C(O)c1ccc(-c2ccc(/C=N/NC(=O)c3[nH]c4ccc(Br)cc4c3-c3ccccc3)s2)cc1 . Reported growth?
### Response 20

###

Tested on: SK-MEL-2 melanoma
Assay: NCI-60 one-dose screen, 48 h
Conditions: 10 µM unless noted
The panel holds about 83,000 compounds, 20% with a hit somewhere; the sample as a whole holds those more often. Active and inactive are the calls of the source. Rule for the calls: active = growth percent below 10; inactive = the rest.
Can you answer with just one of these options? T for active, F for inactive

### Prompt Could you please tell me the result logged for NS(=O)(=O)c1ccc(-n2cc(-c3cccc(NC(=O)c4cc(N5CCOCC5)cc(C(F)(F)F)c4)c3)nn2)cc1 in this assay?
### Response F

###

Tested on: OVCAR-3 ovarian
Test: NCI-60 one-dose screen, 48 h
Conditions: 10 µM unless noted
This is part of a sample that, as a whole, favours compounds with a hit. Of some 83,000 tested, about 20% had one in any assay. Calls of active or inactive are those of the source. How the source made its calls: active means growth percent below 10; inactive means the rest.
The reply should be one of these categories: true (1) for active, false (0) for inactive

Some solved entries appear below for comparison.
- compound: "Cn1cc(-c2cc(N)n3nc(-c4cn(C)c5ccccc45)cc3n2)c2cc(Br)ccc21"
  class: "true (1)"
- compound: "CCC(C)(C)c1ccc(OCCCCCCN2CCN(c3ccncc3)CC2)cc1"
  class: "false (0)"
- compound: "Cc1cccc(NC(=O)[C@]23CCC(C)(C)CC2C2=CCC4[C@@]5(C)C[C@@H](O)[C@H](O)[C@@](C)(CO)C5CC[C@@]4(C)[C@]2(C)CC3)c1 (stereo partly drawn)"
  class: "false (0)"
- compound: "COc1ccc(-c2ccnc(SCc3cc4ccccc4[nH]c3=O)n2)cc1OC"
  class: "false (0)"

### Prompt I would be grateful if you could indicate the recorded call for Cc1ccc([C@H]2C(C(=O)c3ccc(Cl)cc3)C3(N[C@@H]2c2ccccc2)C(=O)Nc2ccc(Cl)cc23)cc1 (stereo partly drawn) .
### Response false (0)

### Prompt Which outcome was entered for the compound COc1cc(C2CC(c3cc(OC)c(OC)c(OC)c3)=Nc3c(N)nc(N)nc3N2)ccc1Oc1nc(NCCO)nc(N2CCOCC2)n1 (stereo not drawn) in this test?
### Response false (0)

### Prompt Write down the call the test reported for this compound. Item: CCCSc1nc(NCCc2c[nH]c3ccccc23)c(C#N)c(-c2ccc(F)cc2)n1
### Response false (0)

### Prompt In this assay, the call recorded for COc1cc2oc(-c3cccc(C(=O)Nc4ccc(Cl)cc4)c3)cc(=O)c2c(OCCNC(=O)[C@H](CO)NC(=O)OC(C)(C)C)c1OC was what?
### Response false (0)

###

Tested on: HCC-2998 colon
Assay: NCI-60 one-dose screen, 48 h
Conditions: 10 µM unless noted
This is part of a sample that, as a whole, favours compounds with a hit. Of some 83,000 tested, about 20% had one in any assay. Active and inactive are the calls of the source. Rule for the calls: active = growth percent below 10; inactive = the rest.
Pick from active, inactive when you respond.

Example entries and their recorded answers appear below.
- compound: "NC(=S)Nc1cccc(NC(N)=S)c1"
  class: "inactive"
- compound: "O=C(NN1C(=O)/C(=C/C=C/c2ccc([N+](=O)[O-])o2)SC1=S)c1cccc(O)c1"
  class: "active"
- compound: "COc1ccc(C(=O)Nc2n[nH]c(Nc3ccccc3)c2C#N)cc1"
  class: "inactive"
- compound: "COc1ccc(C(=O)/C=C/c2ccccc2Br)cc1S(N)(=O)=O"
  class: "active"
- compound: "CN(C)c1nc(NCCNS(=O)(=O)c2ccc(C(=O)/C=C/c3ccc(Cl)cc3)cc2)nc(Nc2ccc(F)cc2)n1"
  class: "active"

### Prompt Assay result, entry Cc1occc1C(=O)NN1C(=O)/C(=C/C=C/c2ccc([N+](=O)[O-])o2)SC1=S — outcome?
### Response active

### Prompt What classification did Cn1cc(-c2nc(N)nnc2-c2c[nH]c3ccc(Br)cc23)c2cccnc21 end up with in this test?
### Response inactive

### Prompt # fetch the recorded call for C#C[C@]1(O)CC[C@H]2[C@@H]3CC=C4c5sc(-c6ccc(O)c(O)c6)nc5CC[C@]4(C)[C@H]3CC[C@@]21C here
### Response active

### Prompt Recorded call for C=C1CCC2C3(C)COC(c4ccco4)OC3CCC2(C)C1CC(Sc1ccccc1)C1=CCOC1=O (centres undefined) ?
### Response inactive

### Prompt Please share the test call associated with COc1ccc2c(c1)C(=N/N=C(\C)c1ccc(OC)c(S(N)(=O)=O)c1)C(=O)N2 .
### Response inactive

### Prompt How was C=C1CCC2C3(C)COC(c4ccccc4)OC3CCC2(C)C1CC(Sc1ccccc1)C1=CCOC1=O (centres undefined) classified in this test?
### Response inactive

### Prompt Look up the recorded call for C=C1CC[C@@H]2[C@]3(C)COC(c4cn[nH]c4-c4ccccc4)O[C@@H]3CC[C@@]2(C)[C@@H]1C/C=C1/C(=O)OCC1O (some centres undefined) in this test.
### Response inactive

### Prompt Recorded test outcome, item CC1(c2cc3cc(Cl)ccc3oc2=O)NC(=O)c2c(/C=C/C(=O)OC3CC4CCC3(C)C4(C)C)cccc2N1 (centres undefined)
### Response inactive

### Prompt # outcome recorded in this test, key = Cc1ccc([C@H]2C(C(=O)c3ccc(Cl)cc3)C3(N[C@@H]2c2ccccc2)C(=O)Nc2ccc(Br)cc23)cc1 (some centres undefined)
### Response inactive

Data credit: PubChem BioAssay (NCI)
